FYI, the data here is from ChEMBL document CHEMBL1201862.

Measured GI50 accompanies every entry in the list below.
tested on: MCF7; experiment: NCI tumour cell line growth inhibition, 48 h
The source made the active and inactive calls. No stated cut-off is given here; in the data, active = GI50 up to about 1.1 µM and inactive = higher.

// below: answered compounds
CSCCC(NC(=O)C(Cc1ccccc1)NC(=O)CNC(=O)CNC(=O)C(N)Cc1ccc(O)cc1)C(=O)O (stereo unspecified): > 100 µM (inactive)
O=c1c2cc(S(=O)(=O)O)ccc2nc(COc2ccc(Oc3ccc(Cl)cc3Cl)cc2)n1-c1ccc(Cl)cc1Oc1c(Cl)cccc1Cl: 21.2 µM (inactive)
COC1C(OC(=O)c2ccc(C)[nH]2)C(O)C(Oc2ccc3c(O)c(NC(=O)c4ccc(O)c(CC=C(C)C)c4)c(=O)oc3c2Cl)OC1(C)C (stereo unspecified): 18.4 µM (inactive)
COCCN(C(C)=O)C1CCC2(SCCS2)c2[nH]c3ccccc3c21 (stereo unspecified): > 100 µM (inactive)
COc1ccc(-c2oc3ccc(C)cc3c(=O)c2O)cc1: > 100 µM (inactive)
Cc1nc(C)c(N2CCN(C(=O)NC(CCC(=O)O)C(=O)O)CC2)c(O)n1 (stereo unspecified): > 100 µM (inactive)

Inquiry: Reported GI50 for COc1cc2c(cc1OCCCCN1C(=O)c3cccc4cccc(c34)C1=O)N=C[C@@H]1CCCN1C2=O : what is it?
Reply text: 1.69 µM (inactive)

Inquiry: Reported GI50 for Nc1ccc2c3c1cccc3c(=O)n1c3ccc(Cc4ccc5c(c4)nc4c6ccc(N)c7cccc(c(=O)n54)c76)cc3nc21 : what is it?
Reply text: > 100 µM (inactive)

Inquiry: Reported GI50 for Nc1ccc2c(c1)C(=O)N1CCC[C@H]1C(=O)N2 : what is it?
Reply text: > 100 µM (inactive)

====

tested on: XF498; experiment: NCI tumour cell line growth inhibition, 48 h
Activity calls are given as the source filed them. No stated cut-off is given here; in the data, active = GI50 up to about 1.1 µM and inactive = higher.
Please state which outcome applies, choosing from active, inactive

O=C(CSc1ncnc2[nH]cnc12)c1ccccc1: inactive
N#Cc1ccc(/C=C(/C(=O)c2ccccc2)c2ccccc2)cc1: inactive
O=C(NCCc1ccccc1)C1C(=O)C(=O)N(CCc2ccccc2)C1=O (configuration not stated): inactive

Inquiry: Dear colleague, could you share the recorded outcome for COc1ccc2nc3cc(Cl)ccc3c(NC(C)CCCN(CCCl)CCCl)c2c1 (configuration not stated) when you have a moment?
Reply text: active

Inquiry: Dear colleague, could you share the recorded outcome for COc1ccc2c(c1)c1c(C)c3cnccc3c(C)c1n2CCCN when you have a moment?
Reply text: active

Inquiry: Dear colleague, could you share the recorded outcome for O=c1c(C(c2ccc(Cl)cc2)c2c(O)c3ccccc3n(-c3ccccc3)c2=O)c(O)c2ccccc2n1-c1ccccc1 when you have a moment?
Reply text: inactive

Inquiry: Dear colleague, could you share the recorded outcome for CC1(C)CC(/C=C2/OC(=O)c3ccccc32)=C(C(N)=O)C(=O)O1 when you have a moment?
Reply text: inactive

====

Measured GI50 accompanies every entry in the list below.
test system: UACC-62; assay: NCI tumour cell line growth inhibition, 48 h
The source made the active and inactive calls. Rule as the data show it: active = GI50 up to about 1.1 µM and inactive = higher.

// below: answered compounds
O=P(Nc1ccccc1)(Oc1ccccc1)N(CCCl)CCCl (centres undefined): 89.1 µM (inactive)
Brc1ccc(-c2cc(-c3ccc4c(c3)OCO4)c(-c3cccs3)n2Cc2ccccc2)cc1: > 100 µM (inactive)
N#CC(C#N)=c1ccc(=C2N3CCCC3CN2C23CC4CC(CC(C4)C2)C3)cc1 (centres undefined): 90.6 µM (inactive)
CCNC(=O)CCN(C(=O)O)S(=O)(=O)c1ccc(NC(=O)c2ccccc2)cc1: > 100 µM (inactive)
CC(=O)O[C@H]1CC[C@@]2(C)C(=CC[C@H]3C4=CC=C(C(C)=O)[C@@]4(C)CCC32)C1 (some centres undefined): 18.8 µM (inactive)

Inquiry: Form: Entry = O=C(CSc1ncnc2[nH]cnc12)c1ccccc1 | System = UACC-62 | GI50 = ____
Reply text: > 100 µM (inactive)

Inquiry: Form: Entry = Cc1ccc(S(=O)(=O)N/N=C2\C(=O)C3CC2C(Cl)C3Cl)cc1 (centres undefined) | System = UACC-62 | GI50 = ____
Reply text: > 100 µM (inactive)

Inquiry: Form: Entry = OCCc1cnco1 | System = UACC-62 | GI50 = ____
Reply text: > 100 µM (inactive)

Inquiry: Form: Entry = C=C1C[C@@H]2CC[C@@]34CC5O[C@H]6C(O[C@H]7CC[C@H](CC(=O)O[C@@H]8[C@@H](C)[C@@H]9O[C@@H]%10C[C@]%11(C[C@@H]%12O[C@]%13(C[C@H](C)[C@@H]%14O[C@@H]%15CC(C(O)CO)O[C@@H]%15C[C@@H]%14O%13)C[C@H](C)[C@@H]%12O%11)O[C@@H]%10C[C@@H]9O[C@H]8CC8O[C@@H](CC[C@@H]1O2)C[C@@H](C)C8(O)CO)O[C@@H]7[C@@H]6O3)[C@H]5O4 (some centres undefined) | System = UACC-62 | GI50 = ____
Reply text: 0.481 µM (active)

Inquiry: Form: Entry = C=C1OC2OC(C)C(NC(=O)OCC(Cl)(Cl)Cl)C(OC(C)=O)C2O1 (centres undefined) | System = UACC-62 | GI50 = ____
Reply text: > 100 µM (inactive)

Inquiry: Form: Entry = Cc1cn([C@H]2CN(O)C[C@@H](CO)O2)c(=O)[nH]c1=O | System = UACC-62 | GI50 = ____
Reply text: > 100 µM (inactive)

Inquiry: Form: Entry = CC(=O)OCC1OC(n2c(C#N)cc(=O)[nH]c2=O)CC1OC(C)=O (centres undefined) | System = UACC-62 | GI50 = ____
Reply text: > 100 µM (inactive)

====

system: DMS-114; test: NCI tumour cell line growth inhibition, 48 h
Active and inactive are the calls of the source. Rule as the data show it: active = GI50 up to about 1.1 µM and inactive = higher.
Experimental readout: GI50

O=c1c(C(c2ccc(Cl)cc2)c2c(O)c3ccccc3n(-c3ccccc3)c2=O)c(O)c2ccccc2n1-c1ccccc1: 28.7 µM (inactive)

Inquiry: Reported GI50 for CC1(C)C2CCC13CS(=O)(=O)N1O[C@]13C(=O)O2 (stereo partly specified) : what is it?
Reply text: > 100 µM (inactive)

Inquiry: Reported GI50 for CN(C)CCNC(=O)c1cccc2nc3cc(Cl)ccc3nc12 : what is it?
Reply text: 1.83 µM (inactive)

Inquiry: Reported GI50 for COc1ccc(OC(C)C(=O)O)c2c(=O)ccccc12 (stereo unspecified) : what is it?
Reply text: > 100 µM (inactive)

Inquiry: Reported GI50 for O=P(Nc1ccccc1)(Oc1ccccc1)N(CCCl)CCCl (stereo unspecified) : what is it?
Reply text: 60.1 µM (inactive)

Inquiry: Reported GI50 for Cc1cc(N(CCC#N)CCC#N)ccc1/C=C/C(=O)Nc1ccccc1Cl : what is it?
Reply text: > 100 µM (inactive)

====

Measured GI50 accompanies every entry in the list below.
test system: HOP-92; assay: NCI tumour cell line growth inhibition, 48 h
Activity calls are given as the source filed them. Rule as the data show it: active = GI50 up to about 1.1 µM and inactive = higher.

// below: answered compounds
COc1ccc(C[C@H](N)C(=O)N2C[C@@H](CO)C[C@@H](n3ccc(=O)[nH]c3=O)C2)cc1: > 100 µM (inactive)
CC(=O)OC1(C)C(=O)OC/C2=C/CN(C)CCC(OC(=O)C(O)(C(C)Cl)CC1C)C2=O.c1ccccc1 (stereo not drawn): > 100 µM (inactive)
CN(C(=O)C12C3C4C1C1C2C3C41C(=O)N(C)C(C)(C)C)C(C)(C)C (stereo not drawn): > 50 µM (inactive)
NC1=Nc2cc(Cl)ccc2Sc2nc3ccccc3n21: 16.1 µM (inactive)
Nc1c(Cl)ncnc1N[C@@H]1C[C@H]1CO: > 100 µM (inactive)
COc1cc([C@@H]2c3cc4c(cc3[C@@H](/N=C/c3ccc(C(=O)O[C@@H](C(=O)O[C@H]5C[C@@]6(O)[C@@H](OC(=O)c7ccccc7)[C@@H]7[C@]8(OC(C)=O)CO[C@@H]8C[C@H](O)[C@@]7(C)C(=O)[C@H](OC(C)=O)C(=C5C)C6(C)C)[C@@H](NC(=O)c5ccccc5)c5ccccc5)cc3)[C@H]3COC(=O)[C@H]23)OCO4)cc(OC)c1O: > 36.4 µM (inactive)

Inquiry: Reported GI50 for N#CC1(O)CCCCCCCCCCC1 : what is it?
Reply text: > 100 µM (inactive)

Inquiry: Reported GI50 for CCOC(=O)c1cc2c3c(cc(OC)c2[nH]1)N(C(=O)OCC)CC3 : what is it?
Reply text: > 100 µM (inactive)

Inquiry: Reported GI50 for Nc1ccc2c(c1)C(=O)N1CCC[C@H]1C(=O)N2 : what is it?
Reply text: > 100 µM (inactive)

====

Measured GI50 accompanies every entry in the list below.
tested on: HCC 2998; experiment: NCI tumour cell line growth inhibition, 48 h
Active and inactive are the calls of the source. Rule as the data show it: active = GI50 up to about 1.1 µM and inactive = higher.

// below: answered compounds
O=C(Nc1nn(C(=O)c2cccnc2)c(=O)s1)c1ccc(Cl)cc1: > 100 µM (inactive)
N#CC(C(=O)CCCC(=O)Nc1ccc(Cl)cc1Cl)c1ccc(Cl)cc1 (stereo unspecified): > 100 µM (inactive)
CC(=O)OCC1OC(n2c(C#N)cc(=O)[nH]c2=O)CC1OC(C)=O (stereo unspecified): > 10 µM (inactive)
C/C(=C\CO)CC[C@@H]1[C@@]2(C)CCCC(C)(C)[C@@H]2CC[C@@]1(C)O: 16 µM (inactive)
NS(=O)(=O)c1ccc(/C=C/c2ccc(O)c(O)c2)cc1: 18.7 µM (inactive)

Inquiry: Reported GI50 for COc1ccc(OC)c(C2CCc3c(cnc4nc(N)nc(N)c34)C2)c1 (stereo unspecified) : what is it?
Reply text: 12.3 µM (inactive)
